Read-out: Cytochrome P450 (CYP2B6), CYP2B6 (gene 1555)
Assay: LTEA_HepaRG_CYP2B6: Life Technologies and Expression Analysis (LTEA) Assay for Cytochrome P450 (CYP2B6) using HepaRG (AID 2283481)
Conditions Used: mRNA level, 48 h; actives raise or lower the signal
Activity calls are given as the source filed them. How the source made its calls: active means hit-call score of the fitted dose curve at least 0.9, where 1 is the maximum; inactive means score below 0.9.
Pick from active, inactive when you respond.

Some solved cases for reference:
Compound: C=CCOC(=O)C(C)(C)OC(=O)c1cc(-n2c(=O)cc(C(F)(F)F)n(C)c2=O)ccc1Cl
Answer Label: active

Compound: CCNP(=S)(OC)O/C(C)=C/C(=O)OC(C)C (stereo not given)
Answer Label: active

Compound: O=c1n(Cl)c(=O)n(Cl)c(=O)n1Cl
Answer Label: inactive

Compound: CNC(=O)N(C)c1nnc(C(C)(C)C)s1
Answer Label: active

Compound: Cn1c(-c2ccccc2)cc(-c2ccccc2)[n+]1C
Answer Label: active

Compound: COCC(=O)N(c1c(C)cccc1C)C(C)C(=O)OC (stereo not given)
Answer Label: active

Problem: Outcome logged for CCN(CC)C(=O)C(C)Oc1cccc2ccccc12 (stereo not given) in this assay:
Result: active

Problem: And for CCOC(=O)C(C)OC(=O)c1cc(Oc2ccc(C(F)(F)F)cc2Cl)ccc1[N+](=O)[O-] (stereo not given) ?
Result: active

Problem: And for CS(=O)(=O)c1ccc(C(=O)C2C(=O)CCCC2=O)c([N+](=O)[O-])c1 ?
Result: inactive

Problem: And for OC(c1ccc(Cl)cc1)(c1ccc(Cl)cc1)C(Cl)(Cl)Cl ?
Result: active

Problem: And for CC1(C)C(C(=O)OC(C#N)c2cccc(Oc3ccccc3)c2)C1(C)C (stereo not given) ?
Result: active

Problem: And for CCC(C)n1c(=O)[nH]c(C)c(Br)c1=O (stereo not given) ?
Result: active
